Exercise: for every item that follows, state its recorded inhibition in vivo at 25 mg/kg.
- Test system: Serum cholesterol
- experiment: Serum cholesterol in ovariectomized rats, 4-day oral dosing (Table 1)
- Format: in vivo, female Sprague Dawley rats
- particulars: Rattus norvegicus, po, 96 h, OVX rats, 25 mg/kg oral, daily for 4 days; read-out: Serum Cholesterol (% dec. vs. OVX)
Include the unit right after the number.

Incoming: Look up inhibition in vivo at 25 mg/kg for this molecule: Oc1ccc(-c2ccc(-c3ccc(F)cc3)nc2-c2ccc(OCCN3CCCCC3)cc2)cc1
Outgoing: 49.9%

Incoming: Next up: COc1ccc(-c2ccc(C)nc2-c2ccc(OCCN3CCCCC3)cc2)cc1
Outgoing: -1.2%

Incoming: Next up: Cc1ccc(-c2ccc(O)cc2)c(-c2ccc(OCCN3CCCCC3)cc2)n1
Outgoing: 17.9%

Incoming: Next up: COc1ccc(-c2ccc(-c3ccc(F)cc3)nc2-c2ccc(OCCN3CCCCC3)cc2)cc1
Outgoing: 40.8%

Incoming: Next up: COc1ccc(-c2ccc(C)nc2-c2ccc(OCCN3CCOCC3)cc2)cc1
Outgoing: -11.6%

Incoming: Next up: COc1ccc(-c2ccc(C)nc2-c2ccc(OCCN3CCCC3)cc2)cc1
Outgoing: 9.7%

Incoming: Next up: Cc1ccc(-c2ccc(O)cc2)c(-c2ccc(OCCN3CCCC3)cc2)n1
Outgoing: 58.5%

Incoming: Next up: COc1ccc(-c2ccc(C)nc2-c2ccc(OCCN(C)C)cc2)cc1
Outgoing: 22.2%

Incoming: Next up: Cc1ccc(-c2ccc(O)cc2)c(-c2ccc(OCCN3CCOCC3)cc2)n1
Outgoing: -3.6%

Incoming: Next up: Cc1ccc(-c2ccc(O)cc2)c(-c2ccc(OCCN(C)C)cc2)n1
Outgoing: 46.4%

* * *

Exercise: for every item that follows, state its recorded inhibition in vivo at 1 mg/kg.
- Test system: Serum cholesterol
- experiment: Serum cholesterol in ovariectomized rats, 4-day oral dosing (Table 1)
- Type: in vivo, female Sprague Dawley rats
- particulars: Rattus norvegicus, po, 96 h, OVX rats, 1 mg/kg oral, daily for 4 days; read-out: Serum Cholesterol (% dec. vs. OVX)
The response must be a number in % with no trailing unit.

Incoming: Look up inhibition in vivo at 1 mg/kg for this compound: Cc1ccc(-c2ccc(O)cc2)c(-c2ccc(OCCN3CCOCC3)cc2)n1
Outgoing: 16

Incoming: Next up: COc1ccc(-c2ccc(C)nc2-c2ccc(OCCN3CCCC3)cc2)cc1
Outgoing: -23.6

Incoming: Next up: Oc1ccc(-c2ccc(-c3ccccc3)nc2-c2ccc(OCCN3CCCC3)cc2)cc1
Outgoing: 53.8

Incoming: Next up: Cc1ccc(-c2ccc(O)cc2)c(-c2ccc(OCCN3CCCCC3)cc2)n1
Outgoing: 8.4

Incoming: Next up: Oc1ccc(-c2ccc(-c3ccc(O)cc3)c(-c3ccc(OCCN4CCCC4)cc3)n2)cc1
Outgoing: -16.5

Incoming: Next up: Cc1ccc(-c2ccc(O)cc2)c(-c2ccc(OCCN(C)C)cc2)n1
Outgoing: 15.7

Incoming: Next up: COc1ccc(-c2ccc(-c3ccc(F)cc3)nc2-c2ccc(OCCN3CCCCC3)cc2)cc1
Outgoing: 12.3

Incoming: Next up: COc1ccc(-c2ccc(-c3ccc(OC)cc3)c(-c3ccc(OCCN4CCCC4)cc3)n2)cc1
Outgoing: 14

Incoming: Next up: COc1ccc(-c2ccc(C)nc2-c2ccc(OCCN(C)C)cc2)cc1
Outgoing: 15

Incoming: Next up: COc1ccc(-c2ccc(C)nc2-c2ccc(OCCN3CCOCC3)cc2)cc1
Outgoing: 4.5

Data credit: patent US5672609A
